# Assayed target: HIV-1 HXBc2 gp120 (HIV-1 (HXBc2), UniProt P04578)
# Experiment notes: SPR
Please provide measured IC50 for the entries that follow.
Write down the numeric answer in nM and omit the unit.

Exercise: Write down IC50 measured for item Fab m18 (wild type) (Fab, V domains shown) VH: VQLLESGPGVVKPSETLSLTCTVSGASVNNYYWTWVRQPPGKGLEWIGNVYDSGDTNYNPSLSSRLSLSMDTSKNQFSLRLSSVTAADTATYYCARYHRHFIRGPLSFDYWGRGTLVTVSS VL: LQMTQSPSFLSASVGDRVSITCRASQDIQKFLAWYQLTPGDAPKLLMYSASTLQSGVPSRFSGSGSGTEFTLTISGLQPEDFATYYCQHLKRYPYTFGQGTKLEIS
Key: 56.9

Exercise: Write down IC50 measured for item Fab m18 F99A (HCDR3) (Fab, V domains shown) VH: VQLLESGPGVVKPSETLSLTCTVSGASVNNYYWTWVRQPPGKGLEWIGNVYDSGDTNYNPSLSSRLSLSMDTSKNQFSLRLSSVTAADTATYYCARYHRHAIRGPLSFDYWGRGTLVTVSS VL: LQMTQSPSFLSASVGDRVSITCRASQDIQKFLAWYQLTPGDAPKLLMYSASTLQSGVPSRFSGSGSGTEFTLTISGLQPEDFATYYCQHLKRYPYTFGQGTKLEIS
Key: 69.5

Exercise: Write down IC50 measured for item Fab m18 F99Y (HCDR3) (Fab, V domains shown) VH: VQLLESGPGVVKPSETLSLTCTVSGASVNNYYWTWVRQPPGKGLEWIGNVYDSGDTNYNPSLSSRLSLSMDTSKNQFSLRLSSVTAADTATYYCARYHRHYIRGPLSFDYWGRGTLVTVSS VL: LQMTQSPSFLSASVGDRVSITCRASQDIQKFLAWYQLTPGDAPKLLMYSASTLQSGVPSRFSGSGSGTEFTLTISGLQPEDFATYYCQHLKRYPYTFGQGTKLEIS
Key: 66.7
